Hello, the source for this data is ChEMBL document CHEMBL1157723, in case you need it.

# System: MDCK
# assay_remarks: Cytotoxicity against MDCK cells after 48 hrs by MTT assay
# Assay type: cell-based, Canis lupus familiaris
# experimental_setup: dog
Each entry below carries its reported Activity.
I only need the number, in µg/mL, no unit after it.

Below, 5 molecules whose answers are already recorded.
>>> df
                                   molecule  quantity_measured  measurement_units  observed_result
0     Cl.NC12CC3CC(C1)CC(n1cnc(Br)n1)(C3)C2           Activity              µg/mL              620
1  NC1N=NC(Cc2nnn(C34CC5CC(CC(C5)C3)C4)n2)=N1 (stereo not drawn)           Activity              µg/mL             0.18
2     CCc1nnn(C23CC4CC(CC(N)(C4)C2)C3)n1.Cl           Activity              µg/mL              262
3             c1nnn(C23CC4CC(CC(C4)C2)C3)n1           Activity              µg/mL              253
4          S=c1[nH]nnn1C12CC3CC(CC(C3)C1)C2           Activity              µg/mL              167

Requested read-out: Activity. Entry: Cc1nn(C23CC4CC(CC(C4)C2)C3)c(C)c1N 600

Requested read-out: Activity. Entry: O=C(O)c1nn(C23CC4CC(CC(C4)C2)C3)cc1Br 443

Requested read-out: Activity. Entry: Cc1nnn(C23CC4CC(CC(N)(C4)C2)C3)n1.Cl 213

Requested read-out: Activity. Entry: CCn1n[n+](C23CC4CC(CC(C4)C2)C3)nc1[S-] 125

Requested read-out: Activity. Entry: Cl.NC12CC3CC(C1)CC(n1cncn1)(C3)C2 1489

Requested read-out: Activity. Entry: Sc1nnnn1-c1ccccc1 151

Requested read-out: Activity. Entry: Cc1ncn(C23CC4CC(CC(C(C)N)(C4)C2)C3)n1.Cl.Cl (stereo not drawn) 960

Requested read-out: Activity. Entry: Cl.NC12CC3CC(C1)CC(n1ncnn1)(C3)C2 552

---

Each entry below carries its reported selectivity ratio.
# assay_remarks: Selectivity index, ratio of CTD50 for MDCK cells to EC50 for Influenza A virus (A/Puerto Rico/8/34(H1N1))
# Format: toxicity, cell-based
# experimental_setup: dog, read-out: Selectivity Index

In [3]: df
Out[3]:
                            given_smiles  quantity_measured  observed_result
0           OC12CC3CC(C1)CC(N=C=S)(C3)C2  selectivity ratio              > 3
1        Clc1ncn(C23CC4CC(CC(C4)C2)C3)n1  selectivity ratio               10
2  CCc1nnn(C23CC4CC(CC(N)(C4)C2)C3)n1.Cl  selectivity ratio               10
3            c1nnnn1C12CC3CC(CC(C3)C1)C2  selectivity ratio               25
4   O=C(O)Cc1nnn(C23CC4CC(CC(C4)C2)C3)n1  selectivity ratio              > 7

Requested read-out: selectivity ratio. Entry: Cl.NC12CC3CC(C1)CC(n1ncnn1)(C3)C2 25

Requested read-out: selectivity ratio. Entry: O=c1[nH]nnn1-c1ccccc1 3

Requested read-out: selectivity ratio. Entry: S=c1[nH]nnn1C12CC3CC(CC(C3)C1)C2 11

Requested read-out: selectivity ratio. Entry: Sc1nnnn1-c1ccccc1 < 1

Requested read-out: selectivity ratio. Entry: O=C(O)c1nn(C23CC4CC(CC(C4)C2)C3)cc1Br 1

Requested read-out: selectivity ratio. Entry: c1ncn(C23CC4CC(CC(C4)C2)C3)n1 5

Requested read-out: selectivity ratio. Entry: Cl.NC12CC3CC(C1)CC(n1cncn1)(C3)C2 12
